assay: Proliferation of exponentially growing Huh-5-2 cells (MTS); assay type: cell-based; settings: human, exponentially growing Huh-5-2 cells (HCV replicon cell line); Table 11; inhibition of proliferation of exponentially growing Huh-5-2 cells by 50%
Label true when CC50 at 72 hours < 8 µg/mL; otherwise false.

>>> cat("Clc1c2nc(-c3ccccc3)nc-2ccn1Cc1ccc(Br)cc1 [GPJN-96]")
"true"
>>> cat("CC(C)(C)c1ccc(Cn2ccc3nc(-c4ccccc4)nc-3c2)cc1 [GPJN-16]")
"true"
>>> cat("Brc1ccc(Cn2ccc3nc(-c4ccccn4)nc-3c2)cc1 [GPJN-58]")
"true"
>>> cat("Brc1ccc(Cn2ccc3nc(-c4cccc5ccccc45)nc-3c2)cc1 [GPJN-62]")
"true"
>>> cat("Fc1ccccc1-c1nc2ccn(Cc3ccc(I)cc3)cc-2n1 [GPJN-113]")
"false"
>>> cat("FC(F)(F)c1cccc(-c2nc3ccn(Cc4ccc(Br)cc4)cc-3n2)c1 [GPJN-87]")
"false"
>>> cat("Fc1ccccc1-c1nc2ccn(Cc3ccc(Cl)cc3)cc-2n1 [GPJN-112]")
"false"
